test_summary: Quantitative High-Throughput drug screen in 47 multiple myeloma cell lines against the NCATS MIPE library collection: U266_ATCC cell viability assay (AID 1919864); also: nearly all actives have a fitted effect of over 35% in size; also: potency is read from the fitted curve at half-maximal effect
condition_label: U266 myeloma viability, CellTiter-Glo ATP luminescence, 48 h; series mostly up to 45.8 µM
Description: PI: Beverly A. Mock Ph.D. Laboratory of Cancer Biology and Genetics, Center for Cancer Research, National Cancer Institute, National Institute of Health, Bethesda, Maryland […] 5; Detector; 425V; Luminescence; Viewlux PerkinElmer. […] 1. […] Briefly, the corresponding myeloma cell lines were screened in 1,536-well plates with 500 cells, 5-uL per well for inhibition of cell viability (assessed by measuring ATP levels with CellTiterGlo). […]
Inconclusive results are not listed. Calls of active or inactive are those of the source. Calls follow the shape of the dose curve; as a rule, active = well fitted cell-killing curve with a large enough effect; inconclusive = small, poorly fitted or top-dose-only effect, or effect the other way; inactive = no such curve, though single readings can be large or run the other way.
experimental_readout: Potency

INPUT: Return reported Potency. Input compound: O=C1NC(O)CCN1[C@@H]1O[C@H](CO)[C@H](O)[C@H]1O (stereo partly specified)
OUTPUT: inactive

INPUT: Return reported Potency. Input compound: "CC(C)(O)[C@H]1CC[C@@](C)([C@H]2[C@@H](O)C[C@@]3(C)[C@@H]4C[C@H](O[C@@H]5O[C@H](CO)[C@@H](O)[C@H](O)[C@@H]5O)[C@H]5C(C)(C)[C@@H](O[C@@H]6OC[C@@H](O)[C@H](O)[C@@H]6O)CC[C@@]56C[C@@]46CC[C@]23C)O1"
OUTPUT: inactive

INPUT: Return reported Potency. Input compound: "CCN(C(=O)c1c(O)c2c(Cl)cccc2n(C)c1=O)c1ccccc1"
OUTPUT: inactive

INPUT: Return reported Potency. Input compound: "COc1cccc2c1C(=O)c1c(O)c3c(c(O)c1C2=O)C[C@@](O)(C(=O)CO)C[C@H]3O[C@H]1C[C@H](N)[C@H](O)[C@H](C)O1"
OUTPUT: 0.372 µM (active)

INPUT: Return reported Potency. Input compound: "Cc1[nH]c(C=C2C(=O)Nc3ccccc32)c(C)c1CCC(=O)O"
OUTPUT: 5.26 µM (active)

INPUT: Return reported Potency. Input compound: "CC(=O)NCC(=O)N1[C@H]2CC[C@H]1c1cc(Nc3ncc(C(F)(F)F)c(NC4CCC4)n3)ccc12"
OUTPUT: 5.9 µM (active)

More entries:
INPUT: Return reported Potency. Input compound: "Cc1cnc(Nc2ccc(N3CCN(C)CC3)cc2)nc1Nc1cccc(S(=O)(=O)NC(C)(C)C)c1"
OUTPUT: 11.8 µM (active)

INPUT: Return reported Potency. Input compound: "CN(C)c1ccc(C(=O)NCCCCCCC(=O)NO)cc1"
OUTPUT: 1.18 µM (active)

INPUT: Return reported Potency. Input compound: "CN(C)CCN1C(=O)c2cccc3cc(N)cc(c23)C1=O"
OUTPUT: 18.7 µM (active)

INPUT: Return reported Potency. Input compound: "CCCCCCCCCCCCCCCC(=O)OC[C@@H](NC(=O)C(Cl)Cl)[C@H](O)c1ccc([N+](=O)[O-])cc1"
OUTPUT: inactive

INPUT: Return reported Potency. Input compound: Oc1cc2c(cc1O)C1c3ccc(O)c(O)c3OCC1(O)C2 (stereo unspecified)
OUTPUT: inactive

INPUT: Return reported Potency. Input compound: "O=C(Nc1cccc(Nc2ncc(Br)c(NCCc3cnc[nH]3)n2)c1)N1CCCC1"
OUTPUT: 16.6 µM (active)
